- Experiment: Dog pharmacokinetics
- Type: in vivo, male Beagle dogs
- Measurement Conditions: male, Beagle, whole blood, 1 mg/kg intravenous
Measured Quantity: clearance

Ask | Give the value of clearance reported for the following: CS(=O)(=O)c1ccc(C(=O)N2CCN(c3ccc(OC4CCN(C5CCC5)CC4)cc3)CC2)cc1 [compound of formula (I)]
Reply | ~10 mL/min/kg

----------
- Experiment: Rat pharmacokinetics
- Format: in vivo, male CD Sprague Dawley rats
- Measurement Conditions: male, CD Sprague Dawley, whole blood, IV route, 1 mg/kg
Measured Quantity: half-life

Ask | Could you please provide reported half-life for CS(=O)(=O)c1ccc(C(=O)N2CCN(c3ccc(OC4CCN(C5CCC5)CC4)cc3)CC2)cc1 ? Thanks!
Reply | ~120 min
